Molecular target: T1, Bbc1, P47068
T1 sequence (P47068 1-78, looked up): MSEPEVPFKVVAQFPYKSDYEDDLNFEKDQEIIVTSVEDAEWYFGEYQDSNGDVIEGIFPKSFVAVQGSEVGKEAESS
Experiment: SPOT array
Conditions: median of control spots 796
Measured Endpoint: SPOT intensity

> print(dat)
            binder  measured.endpoint  assay.result
1  IKKRNKIRLPSGSPE     SPOT intensity           101
2  LPMNIQPDLPPRKIM     SPOT intensity             2
3  PSTMDFPKLPSFQNS     SPOT intensity             0
4  NGRRRPKFRVQLSGN     SPOT intensity           227
5  TSIEIPKRSPLRFTS     SPOT intensity            12
6  RKLRTVPGVPLIHLT     SPOT intensity            34
7  PPPPPPPPPPLPQSL     SPOT intensity             0
